target: Pyruvate kinase (Staphylococcus aureus (strain MRSA252)); assay: Inhibition of methicillin-resistant Staphylococcus aureus 252 pyruvate kinase at 10 uM by LDH assay; conditions: Staphylococcus aureus subsp. aureus MRSA252

compound: COc1ccc2c(c1)cc(C(C)=NNC(=O)c1cc(Br)ccc1O)n2C (mixture of isomers)
unit.label: %
inhibition: 71.3

compound: C/C(=N\OC(=O)c1cc(Br)ccc1O)c1cc2ccccc2n1C
unit.label: %
inhibition: 34

compound: O=C(NN=C(c1ccccc1)c1cc2ccccc2[nH]1)c1cc(Br)ccc1O
unit.label: %
inhibition: 97.6

compound: CCC(=NNC(=O)c1cc2ccccc2cc1O)c1cc2cc(Br)ccc2n1C (mixture of isomers)
unit.label: %
inhibition: 97.7

Source of measurements: ChEMBL document CHEMBL2202977
